# Target Of Assay: hFFA2 (Homo sapiens, UniProt O15552, C141G/H242Q)
# Sequence (O15552 whole entry C141G/H242Q): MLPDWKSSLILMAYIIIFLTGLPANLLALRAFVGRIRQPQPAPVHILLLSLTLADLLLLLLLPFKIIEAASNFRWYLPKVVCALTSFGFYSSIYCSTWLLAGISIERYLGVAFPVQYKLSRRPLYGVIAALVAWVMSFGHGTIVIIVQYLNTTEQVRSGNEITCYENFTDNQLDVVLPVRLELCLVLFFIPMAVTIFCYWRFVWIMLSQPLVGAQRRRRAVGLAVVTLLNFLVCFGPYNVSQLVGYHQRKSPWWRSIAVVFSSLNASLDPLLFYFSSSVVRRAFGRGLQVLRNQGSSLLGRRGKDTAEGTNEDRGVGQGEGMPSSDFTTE
# Assay Protocol: […]GTPγS incorporation, membranes
Recorded Metric: pEC50
Lab note: report pEC50 as minus log10 of the concentration in molar units, number only.

Incoming: # lookup: pEC50 of C/C=C/C=C/C(=O)O
Outgoing: 5.46

====

# Target Of Assay: hFFA2 (Homo sapiens, UniProt O15552)
# Sequence (O15552 whole entry): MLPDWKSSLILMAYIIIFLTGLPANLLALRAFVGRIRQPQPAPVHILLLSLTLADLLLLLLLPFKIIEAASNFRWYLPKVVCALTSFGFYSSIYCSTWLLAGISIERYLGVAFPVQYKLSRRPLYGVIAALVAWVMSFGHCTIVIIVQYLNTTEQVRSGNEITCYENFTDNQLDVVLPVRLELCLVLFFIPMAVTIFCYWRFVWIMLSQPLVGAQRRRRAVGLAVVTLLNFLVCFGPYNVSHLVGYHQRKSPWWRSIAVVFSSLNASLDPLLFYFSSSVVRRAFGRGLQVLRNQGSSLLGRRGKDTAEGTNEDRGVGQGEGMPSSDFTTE
# Assay Protocol: beta-arrestin-2 BRET recruitment
// reported EC50 for each item listed

These recorded examples may help you get a feel for the data.
compound=CCCCCCCC(=O)O reading="> 10 mM"
compound=O=CO reading="2.51 mM"
compound=CC(=CC(=O)O)C(F)(F)F reading="> 10 mM"
compound=CC(=O)O reading="1 mM"

Incoming: Using the record for O=C(O)C1=CCCC1 , report its EC50.
Outgoing: > 10 mM

Incoming: So what's the measured EC50 for this one? CCC/C=C/C(=O)O [compound 23, trans-2-hexenoic acid]
Outgoing: > 10 mM

Incoming: Fill in: EC50 of CCCCCC(=O)O is ___
Outgoing: > 10 mM

Incoming: Looking for the measured EC50 of O=C(O)C1=CCCCC1 , can you help?
Outgoing: > 10 mM

Incoming: Fill blank: measured EC50 of the compound CCCCC(=O)O is ____.
Outgoing: 7.08 mM

Incoming: What value of EC50 has been reported for the following compound? O=C(O)/C=C/c1ccccc1 [compound 28, trans-cinnamic acid]
Outgoing: > 10 mM

Incoming: Entry CCCC(=O)O : reported EC50 = ?
Outgoing: 1.48 mM

Incoming: I'd like to know its EC50. The compound in question is CCCCCCC(=O)O
Outgoing: > 10 mM

Incoming: Entry CCCCCCCCC(=O)O : reported EC50 = ?
Outgoing: > 10 mM

Incoming: For the compound shown here, C/C=C/C=C/C(=O)O , give the reported EC50.
Outgoing: > 10 mM

====

EC50 values by entry
# Target Of Assay: hFFA3 (Homo sapiens, UniProt O14843)
# Sequence (O14843 whole entry): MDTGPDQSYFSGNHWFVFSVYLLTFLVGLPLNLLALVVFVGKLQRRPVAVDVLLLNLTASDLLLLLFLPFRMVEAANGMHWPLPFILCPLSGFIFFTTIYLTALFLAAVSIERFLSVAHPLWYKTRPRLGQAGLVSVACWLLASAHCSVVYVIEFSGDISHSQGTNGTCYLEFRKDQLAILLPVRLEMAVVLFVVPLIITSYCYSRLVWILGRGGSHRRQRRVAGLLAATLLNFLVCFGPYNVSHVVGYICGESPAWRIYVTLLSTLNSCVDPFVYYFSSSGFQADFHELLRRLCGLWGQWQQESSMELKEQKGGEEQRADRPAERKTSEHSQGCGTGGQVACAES
# Assay Protocol: […]GTPγS incorporation, membranes
# Format: biochemical

These solved cases illustrate the format of a correct answer.
compound="CCCCCCCC(=O)O [C8, caprylic acid]" reading="> 10 mM"
compound="O=CO [C1, formic acid]" reading="> 10 mM"

// below: EC50 requested for another compound
Incoming: // map CCCCCCCCC(=O)O [C9, pelargonic acid] to recorded EC50 (system: hFFA3 (Homo sapiens, UniProt O14843))
Outgoing: > 10 mM
